Where do these numbers come from? They come from patent US20200368361A1.

assay_target: T1, human MSR1 with a C-terminal Myc tag expressed on HEK293.Myc.hMSR1 cells (human, UniProt P21757 1-451)
T1 sequence (looked up): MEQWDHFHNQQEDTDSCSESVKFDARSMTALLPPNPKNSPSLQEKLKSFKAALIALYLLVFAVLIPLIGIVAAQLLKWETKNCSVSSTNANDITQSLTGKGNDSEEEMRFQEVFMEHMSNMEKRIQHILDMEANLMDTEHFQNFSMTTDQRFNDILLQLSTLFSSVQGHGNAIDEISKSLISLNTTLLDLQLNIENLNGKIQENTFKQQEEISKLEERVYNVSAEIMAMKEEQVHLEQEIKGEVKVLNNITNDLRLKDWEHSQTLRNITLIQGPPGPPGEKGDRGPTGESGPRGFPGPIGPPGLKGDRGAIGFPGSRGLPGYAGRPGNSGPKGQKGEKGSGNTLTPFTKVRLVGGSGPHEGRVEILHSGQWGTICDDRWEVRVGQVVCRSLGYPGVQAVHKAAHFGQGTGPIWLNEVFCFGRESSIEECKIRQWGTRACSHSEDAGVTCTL
method_description: cell-based or functional assay
value_kind: IC50 of inhibition of Dil-Oxidized LDL uptake (nM)
Reply with just the number (in nM).

Input line: Reported IC50 of inhibition of Dil-Oxidized LDL uptake for H1M21231N (antibody, V domains shown) VH: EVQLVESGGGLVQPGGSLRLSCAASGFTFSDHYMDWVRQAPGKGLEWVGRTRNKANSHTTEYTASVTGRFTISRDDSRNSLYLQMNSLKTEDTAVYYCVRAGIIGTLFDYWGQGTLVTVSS VL: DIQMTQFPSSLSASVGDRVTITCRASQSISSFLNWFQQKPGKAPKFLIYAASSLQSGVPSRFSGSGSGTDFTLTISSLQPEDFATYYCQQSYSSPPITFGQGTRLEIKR : what is it?
Output line: 3.7

Input line: Can you handle H1H21227N (antibody, V domains shown) VH: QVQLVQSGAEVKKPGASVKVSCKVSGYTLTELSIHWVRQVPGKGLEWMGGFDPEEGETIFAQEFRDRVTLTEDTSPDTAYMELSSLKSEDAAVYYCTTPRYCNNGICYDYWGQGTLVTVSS VL: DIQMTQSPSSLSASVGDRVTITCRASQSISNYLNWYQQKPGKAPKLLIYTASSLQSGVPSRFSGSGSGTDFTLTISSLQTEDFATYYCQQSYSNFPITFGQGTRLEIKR next?
Output line: 2
